Assign Percent Control to each entry below.
System: ZAP70;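 note: KINOMEscan scanMAX binding as percent activity remaining versus control; lower means stronger binding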
Settings: Compound Concentration (nM):1000
Answer format: numeric, % implied, no suffix.

Return reported Percent Control. Input molecule: CN(C)CCNC(=O)Nc1ccc(N(C)c2ccnc(Nc3ccc(CS(C)(=O)=O)cc3)n2)cc1.Cl [GW830900A]
90

Return reported Percent Control. Input molecule: COc1cc(N2CCN(C(C)C)CC2)ccc1Nc1nc(Nc2ccc(F)cc2C(=O)NC[C@@H](O)CO)c2cc[nH]c2n1 [GSK1392956A]
86

Return reported Percent Control. Input molecule: COc1ccc2[nH]c3c4[nH]c5ccc(OC)cc5c4c4c(c3c2c1)C(=O)NC4=O [GW296115X]
76

Return reported Percent Control. Input molecule: COc1ccc2cc(-c3c(-c4ccncc4)nc(-c4ccc(S(C)(=O)=O)cc4C)n3C)ccc2c1
84

Return reported Percent Control. Input molecule: CCn1c(-c2nonc2N)nc2c(C#CC(C)(C)O)nc(OCCNC)cc21.Cl
100

Return reported Percent Control. Input molecule: CC(C)COC(=O)c1ccc2c(c1)/C(=C/Nc1ccc(S(N)(=O)=O)cc1)C(=O)N2 [GW416981X]
100

Return reported Percent Control. Input molecule: Cc1cc(O)cc(C)c1/C=C/c1cncc(C(N)=O)c1 [GW435821X]
96

Return reported Percent Control. Input molecule: COc1cc2ncn(-c3cc(O[C@H](C)c4ccccc4Cl)c(C(N)=O)s3)c2cc1OC [GSK237701A]
93

Return reported Percent Control. Input molecule: COc1cc(C=NNc2ncnc3c2cnn3-c2ccccc2)ccc1O [GW513184X]
99

Return reported Percent Control. Input molecule: COC(=O)Nc1nc2ccc(Oc3ccc(NC(=O)Nc4cc(C(F)(F)F)ccc4F)cc3)cc2s1.Cl [GW693917A]
82

Return reported Percent Control. Input molecule: COc1ccc(COc2ccc(Cc3cnc(N)nc3N)cc2OC)cc1 [GW632580X]
97

Return reported Percent Control. Input molecule: Cl.c1ccc(Cc2nc3ccc(Nc4ncnc5ccccc45)cc3[nH]2)cc1 [GR269666A]
90

Return reported Percent Control. Input molecule: Nc1ncnc2occ(-c3ccc(NC(=O)Nc4cc(C(F)(F)F)ccc4F)cc3)c12 [GW770249X]
86

Return reported Percent Control. Input molecule: CCS(=O)(=O)c1ccc(OC)c(Nc2ncc(-c3cccc(OC)c3)o2)c1 [GW580509X]
100

Return reported Percent Control. Input molecule: COc1cc(C)c(N(C)C(=O)CN(C)C)cc1Nc1nc(Nc2cccc(F)c2C(N)=O)c2cc[nH]c2n1
81

Return reported Percent Control. Input molecule: CCc1ccc(Oc2nccc(-c3c(-c4ccc(F)cc4)ncn3C3CCNCC3)n2)cc1
98

Return reported Percent Control. Input molecule: COc1cc2ncnc(Nc3ccc4c(cnn4Cc4ccccc4)c3)c2cc1OC.Cl [GW282449A]
100

Numbers sourced from paper PMC7826789.
